Test system: Staphylococcus aureus
Experiment: Antibacterial activity against Staphylococcus aureus MTCC 96 after 24 hrs by serial dilution method
Format: functional
Conditions: MTCC 96, 24 h
Mark each entry T if its MIC sits below 6 µg/mL, and F for all others.

{"columns": ["compound smiles", "category"],
 "data": [
  ["COc1ccccc1/C=C/C(=O)/C=C/C1=C(C)CCCC1(C)C", "F"],
  ["CC1=C(/C=C/C(=O)/C=C/C=C/c2ccccc2)C(C)(C)CCC1", "F"],
  ["O=C(O)c1cn(C2CC2)c2cc(N3CCNCC3)c(F)cc2c1=O", "T"],
  ["CC1=C(/C=C/C(=O)/C=C/c2ccccc2F)C(C)(C)CCC1", "F"],
  ["CC1=C(/C=C/C(=O)/C=C/c2ccccc2Cl)C(C)(C)CCC1", "T"],
  ["CC1=C(/C=C/C(=O)/C=C/c2ccccc2C)C(C)(C)CCC1", "F"],
  ["CC1=C(/C=C/C(=O)/C=C/c2ccccc2Br)C(C)(C)CCC1", "F"],
  ["CC1=C(/C=C/C(=O)/C=C/c2cccnc2)C(C)(C)CCC1", "F"],
  ["CC1=C(/C=C/C(=O)/C=C/c2ccccc2[N+](=O)[O-])C(C)(C)CCC1", "F"],
  ["CC1=C(/C=C/C(=O)/C=C/c2ccc([N+](=O)[O-])cc2)C(C)(C)CCC1", "F"],
  ["CC1=C(/C=C/C(=O)/C=C/c2cccc3ccccc23)C(C)(C)CCC1", "F"],
  ["COc1ccccc1/C=C/C=C/C(=O)/C=C/C1=C(C)CCCC1(C)C", "F"],
  ["COc1cc(/C=C/C(=O)/C=C/C2=C(C)CCCC2(C)C)cc(OC)c1OC", "F"],
  ["CC1(C)S[C@@H]2[C@H](NC(=O)[C@H](N)c3ccc(O)cc3)C(=O)N2[C@H]1C(=O)O", "T"],
  ["CC1=C(/C=C/C(=O)/C=C/c2ccc(Cl)cc2)C(C)(C)CCC1", "F"],
  ["CC1=C(/C=C/C(=O)/C=C/c2ccc(F)cc2)C(C)(C)CCC1", "F"],
  ["CC1=C(/C=C/C(=O)/C=C/c2ccc(C)cc2)C(C)(C)CCC1", "F"],
  ["CC1=C(/C=C/C(=O)/C=C/c2ccc(Cl)c(Cl)c2)C(C)(C)CCC1", "F"],
  ["COc1ccc(/C=C/C(=O)/C=C/C2=C(C)CCCC2(C)C)cc1", "F"],
  ["CC1=C(/C=C/C(=O)/C=C/c2ccc(C#N)cc2)C(C)(C)CCC1", "F"],
  ["CC1=C(/C=C/C(=O)/C=C/c2ccccc2)C(C)(C)CCC1", "T"]
]}

###

Tested on: Aspergillus niger
Experiment: Antifungal activity against Aspergillus niger MTCC 1344 after 24 hrs by serial dilution method
Format: functional
Conditions: MTCC 1344, 24 h
# MIC per record follows
measure name: MIC (µg/mL)

{"columns": ["compound smiles", "operator", "value"],
 "data": [
  ["CC1=C(/C=C/C(=O)/C=C/c2ccoc2)C(C)(C)CCC1", "=", 61.4],
  ["CC1=C(/C=C/C(=O)/C=C/c2ccc(F)cc2)C(C)(C)CCC1", "=", 15.6],
  ["CC1=C(/C=C/C(=O)/C=C/c2ccccc2)C(C)(C)CCC1", ">", 100],
  ["COC1=CC(=O)C[C@@H](C)[C@]12Oc1c(Cl)c(OC)cc(OC)c1C2=O", "=", 1.9],
  ["COc1ccccc1/C=C/C(=O)/C=C/C1=C(C)CCCC1(C)C", "=", 92.5],
  ["OC(Cn1cncn1)(Cn1cncn1)c1ccc(F)cc1F", "=", 1.9]
]}

// provenance: ChEMBL document CHEMBL2150893
